- Target desc: cloned human H3 receptors, stably expressed in SK-N-MC cells (Homo sapiens)
- Construct: expressed in transfected cells; host or cells: SK-N-MC cells
- Method notes: H3 Receptor Binding (Human)
- Test conditions: average of the results obtained
Observation type: Ki (µM)
Give the number; µM is assumed, so skip it.

Query string: Return Ki for the following molecule: O=C(c1ccc2c(CN3CCC(N4CCCCC4)CC3)c[nH]c2c1)N1CCCCCC1
Result string: 0.021

Query string: Return Ki for the following molecule: CC(C)N1CCCN(C(=O)c2ccc3c(CN4CCOCC4)c[nH]c3c2)CC1
Result string: 0.001

Query string: Return Ki for the following molecule: CC(C)N1CCCN(Cc2c[nH]c3cc(C(=O)N4CCCCC4)ccc23)CC1
Result string: 0.026

Query string: Return Ki for the following molecule: O=C(c1ccc2c(CN3CCCCC3)c[nH]c2c1)N1CCC(N2CCCC2=O)CC1
Result string: 0.26

Query string: Return Ki for the following molecule: O=C(c1ccc2c(CN3CCCN(C4CCC4)CC3)c[nH]c2c1)N1CCOCC1
Result string: 0.038

Query string: Return Ki for the following molecule: CC(C)N1CCN(C(=O)c2ccc3scc(C(=O)N4CCCCC4)c3c2)CC1
Result string: 0.772

Query string: Return Ki for the following molecule: O=C(c1ccc2[nH]cc(CN3CCCCC3)c2c1)N1CCN(C2CCC2)CC1
Result string: 0.013

Query string: Return Ki for the following molecule: O=C(c1cccc2[nH]cc(CN3CCCCC3)c12)N1CCN(C2CCC2)CC1
Result string: 1.5

Query string: Return Ki for the following molecule: CC(C)N1CCCN(C(=O)c2ccc3[nH]cc(CN4CCCCC4)c3c2)CC1
Result string: 0.004

---

- Target desc: cloned human H3 receptors, stably expressed in SK-N-MC cells (Homo sapiens, UniProt Q9Y5N1)
- Construct: expressed in transfected cells; host or cells: SK-N-MC cells
- Method notes: H3 Receptor Binding (Human)
- Test conditions: stated in text for the intermediate of Example 35, Step A
Observation type: pKi
# pKi = -log10(concentration in molar units)

Query string: Return pKi for the following compound: CC(C)N1CCN(C(=O)c2ccc3[nH]ccc3c2)CC1
Result string: 7.01

---

Kindly supply the reported log10 Ki values for the records listed here.
Recall that a logarithmic scale is used here: each number is log10 of Ki in nM.

Query string: Quote Rat H3 (Rattus norvegicus) log10 Ki for entry O=C(c1cccc2c(CN3CCOCC3)c[nH]c12)N1CCN(C2CCC2)CC1 [Example 21] .
Result string: 1.28

Query string: Quote Rat H3 (Rattus norvegicus) log10 Ki for entry CC(C)N1CCN(C(=O)c2ccc3scc(CN4CCCCC4)c3c2)CC1 [Example 102] .
Result string: 2.36

Query string: Quote Rat H3 (Rattus norvegicus) log10 Ki for entry CC(C)N1CCN(C(=O)c2ccc3c(CN4CCOCC4)c[nH]c3c2)CC1 [Example 4] .
Result string: 1.15

Query string: Quote Rat H3 (Rattus norvegicus) log10 Ki for entry O=C(c1ccc2c(CN3CCN(C4CCC4)CC3)c[nH]c2c1)N1CCCCC1 [Example 29] .
Result string: 2.64

Query string: Quote Rat H3 (Rattus norvegicus) log10 Ki for entry O=C(c1ccc2c(CN3CCOCC3)c[nH]c2c1)N1CCN(C2CC2)CC1 [Example 5] .
Result string: 1.45

---

- Target desc: cloned human H3 receptors, stably expressed in SK-N-MC cells (Homo sapiens, UniProt Q9Y5N1)
- Construct: expressed in transfected cells; host or cells: SK-N-MC cells
- Method notes: H3 Receptor Binding (Human)
- Test conditions: average of the results obtained
Observation type: Ki (nM)
Give the number; nM is assumed, so skip it.

Query string: Return Ki for the following molecule: CN(C)C1CCN(Cc2c[nH]c3cc(C(=O)N4CCC(CO)CC4)ccc23)C1 (stereo not drawn) [Example 94]
Result string: 27

Query string: Return Ki for the following molecule: CC(C)N1CCN(C(=O)c2cccc3c(CN4CCOCC4)c[nH]c23)CC1 [Example 20]
Result string: 10

Query string: Return Ki for the following molecule: CC(C)N1CCCN(Cc2c[nH]c3cc(C(=O)N4CCSCC4)ccc23)CC1 [Example 72]
Result string: 36

---

Kindly supply the reported Kb values for the records listed here.
- Target desc: human H3 receptor (Homo sapiens, UniProt Q9Y5N1)
- Construct: expressed in transfected cells; host or cells: SK-N-MC cells
- Sequence (Q9Y5N1 whole entry): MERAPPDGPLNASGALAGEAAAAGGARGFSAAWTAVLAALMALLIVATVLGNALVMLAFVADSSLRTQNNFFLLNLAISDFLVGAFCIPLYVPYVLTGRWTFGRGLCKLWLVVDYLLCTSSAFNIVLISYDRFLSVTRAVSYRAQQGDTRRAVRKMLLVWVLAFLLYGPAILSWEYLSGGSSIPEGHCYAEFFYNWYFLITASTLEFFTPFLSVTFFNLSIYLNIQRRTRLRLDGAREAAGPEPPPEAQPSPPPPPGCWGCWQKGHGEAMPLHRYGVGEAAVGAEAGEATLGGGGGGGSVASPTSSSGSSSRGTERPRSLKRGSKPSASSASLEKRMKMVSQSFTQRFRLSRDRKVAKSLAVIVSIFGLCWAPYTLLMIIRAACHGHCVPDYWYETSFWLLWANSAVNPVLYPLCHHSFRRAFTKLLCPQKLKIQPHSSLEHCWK
- Method notes: Cyclic AMP Accumulation, SK-N-MC reporter cells (human H3)
- Format: cell-based
- Test conditions: SK-N-MC cells expressing reporter construct and human H3 receptor; read-out: Human pA2 (converted)
Could you write the number and then its unit?

Query string: Quote human H3 receptor (Homo sapiens, UniProt Q9Y5N1) Kb for entry O=C(c1ccc2c(CN3CCN(C4CCCC4)CC3)c[nH]c2c1)N1CCCCCC1 .
Result string: 46.8 nM

Query string: Quote human H3 receptor (Homo sapiens, UniProt Q9Y5N1) Kb for entry CC(C)N1CCN(C(=O)c2ccc3c(CN4CCC(c5ccccc5)CC4)c[nH]c3c2)CC1 .
Result string: 1.17 nM

Query string: Quote human H3 receptor (Homo sapiens, UniProt Q9Y5N1) Kb for entry CC(C)N1CCN(C(=O)c2ccc3c(CN4CCOCC4)cn(C)c3c2)CC1 .
Result string: 3.72 nM

Query string: Quote human H3 receptor (Homo sapiens, UniProt Q9Y5N1) Kb for entry O=C(c1ccc2c(CN3CCOCC3)c[nH]c2c1)N1CCN(C2CC2)CC1 .
Result string: 0.537 nM

Query string: Quote human H3 receptor (Homo sapiens, UniProt Q9Y5N1) Kb for entry CC(C)N1CCN(C(=O)c2ccc3c(CN4CCCCC4)cn(S(C)(=O)=O)c3c2)CC1 .
Result string: 3.09 nM

Query string: Quote human H3 receptor (Homo sapiens, UniProt Q9Y5N1) Kb for entry CC(C)N1CCN(C(=O)c2ccc3c(CN4CCN(c5ccccc5)CC4)c[nH]c3c2)CC1 .
Result string: 1.82 nM

Query string: Quote human H3 receptor (Homo sapiens, UniProt Q9Y5N1) Kb for entry O=C(c1cccc2c(CN3CCOCC3)c[nH]c12)N1CCN(C2CCC2)CC1 .
Result string: 1.1 nM

Query string: Quote human H3 receptor (Homo sapiens, UniProt Q9Y5N1) Kb for entry O=C(c1cccc2c(CN3CCCCC3)c[nH]c12)N1CCN(C2CCC2)CC1 .
Result string: 0.575 nM

---

- Target desc: cloned human H3 receptors, stably expressed in SK-N-MC cells (Homo sapiens, UniProt Q9Y5N1)
- Construct: expressed in transfected cells; host or cells: SK-N-MC cells
- Method notes: H3 Receptor Binding (Human)
- Test conditions: average of the results obtained
Kindly supply the reported pKi values for the records listed here.
# pKi = -log10(concentration in molar units)

Query string: Return pKi for the following molecule: CC(C)N1CCN(C(=O)c2ccc3c(CN4CCN(Cc5ccccc5)CC4)c[nH]c3c2)CC1 [Example 51]
Result string: 8.70

Query string: Return pKi for the following molecule: CC(=O)N1CCCN(Cc2c[nH]c3cc(C(=O)N4CCN(C(C)C)CC4)ccc23)CC1 [Example 50]
Result string: 8.52

Query string: Return pKi for the following molecule: O=C(c1ccc2c(CN3CCC(N4CCCCC4)CC3)c[nH]c2c1)N1CCOCC1 [Example 73]
Result string: 6.69

Query string: Return pKi for the following molecule: O=C(c1cccc2c(CN3CCN(C4CCC4)CC3)c[nH]c12)N1CCCCC1 [Example 36]
Result string: 7.09

Query string: Return pKi for the following molecule: CC(C)N1CCN(C(=O)c2ccc3c(CN4CCN(CCc5ccccc5)CC4)c[nH]c3c2)CC1 [Example 56]
Result string: 8.70

Query string: Return pKi for the following molecule: O=C(NCc1cccnc1)c1ccc2c(CN3CCCCC3)c[nH]c2c1 [Example 15]
Result string: 6.93

Query string: Return pKi for the following molecule: CC(C)N1CCN(Cc2c[nH]c3cc(C(=O)N4CCOCC4)ccc23)CC1 [Example 76]
Result string: 7.27

Query string: Return pKi for the following molecule: CC(C)N1CCN(C(=O)c2ccc3c(CN4CCCC(CO)C4)c[nH]c3c2)CC1 (stereo not shown) [Example 44]
Result string: 8.70

Query string: Return pKi for the following molecule: CC(=O)N(C)C1CCN(Cc2c[nH]c3cc(C(=O)N4CCN(C(C)C)CC4)ccc23)C1 (stereo not shown) [Example 60]
Result string: 9.00

Query string: Return pKi for the following molecule: CC(C)N1CCN(C(=O)c2ccc3c(CN4CCOCC4)cn(C)c3c2)CC1 [Example 1]
Result string: 8.70

Query string: Return pKi for the following molecule: CC(C)N1CCN(C(=O)c2ccc3c(CN4CCN(c5ccccn5)CC4)c[nH]c3c2)CC1 [Example 46]
Result string: 8.52

Query string: Return pKi for the following molecule: CC(C)N1CCN(Cc2c[nH]c3cc(C(=O)N4CCCCC4)ccc23)CC1 [Example 27]
Result string: 7.55

Query string: Return pKi for the following molecule: O=C(c1ccc2c(CN3CCCN(C4CCC4)CC3)c[nH]c2c1)N1CCCCCC1 [Example 98]
Result string: 7.47

Query string: Return pKi for the following molecule: Cc1cccnc1CNC(=O)c1ccc2c(CN3CCCCC3)c[nH]c2c1 [Example 17]
Result string: 6.94

Query string: Return pKi for the following molecule: CC(C)N1CCN(Cc2c[nH]c3cc(C(=O)N4CCC(CO)CC4)ccc23)CC1 [Example 82]
Result string: 7.47

Query string: Return pKi for the following molecule: CC(C)N1CCN(C(=O)c2ccc3c(CN4CCN(C(=O)N5CCOCC5)CC4)c[nH]c3c2)CC1 [Example 61]
Result string: 8.52

Query string: Return pKi for the following molecule: O=C(c1ccc2c(CN3CCC(N4CCCCC4)CC3)c[nH]c2c1)N1CCC(c2ccccc2)CC1 [Example 85]
Result string: 7.09

Query string: Return pKi for the following molecule: CC(C)N1CCN(C(=O)c2ccc3c(CN4CCN(c5ccc(-c6ccccc6)cc5)CC4)c[nH]c3c2)CC1 [Example 52]
Result string: 7.92

Query string: Return pKi for the following molecule: Cc1cccnc1CNC(=O)c1ccc2c(CN3CCOCC3)c[nH]c2c1 [Example 12]
Result string: 5.70

Query string: Return pKi for the following molecule: O=C(c1cccc2c(CN3CCOCC3)c[nH]c12)N1CCN(C2CCC2)CC1 [Example 21]
Result string: 8.30

Query string: Return pKi for the following molecule: CC(C)N1CCN(C(=O)c2ccc3c(CN4CCN(S(C)(=O)=O)CC4)c[nH]c3c2)CC1 [Example 54]
Result string: 7.92

Query string: Return pKi for the following molecule: CC(C)N1CCN(C(=O)c2ccc3scc(CN4CCCCC4)c3c2)CC1 [Example 102]
Result string: 7.77

Query string: Return pKi for the following molecule: O=C(NCc1cccnc1)c1ccc2c(CN3CCOCC3)c[nH]c2c1 [Example 10]
Result string: 5.30

Query string: Return pKi for the following molecule: CC(C)N1CCN(C(=O)c2ccc3c(CN4CCCCC4)cn(S(C)(=O)=O)c3c2)CC1 [Example 25]
Result string: 8.52

Query string: Return pKi for the following molecule: CC(C)N1CCCN(Cc2c[nH]c3cc(C(=O)N4CCOCC4)ccc23)CC1 [Example 78]
Result string: 7.38

Query string: Return pKi for the following molecule: CN(C)C1CCN(Cc2c[nH]c3cc(C(=O)N4CCC(c5ccccc5)CC4)ccc23)CC1 [Example 88]
Result string: 6.73

Query string: Return pKi for the following molecule: O=C(c1ccc2c(CN3CCN(C4CCC4)CC3)c[nH]c2c1)N1CCCCCC1 [Example 93]
Result string: 7.42

Query string: Return pKi for the following molecule: O=C(c1ccc2c(CN3CCN(C4CCCC4)CC3)c[nH]c2c1)N1CCCCCC1 [Example 91]
Result string: 7.59

Query string: Return pKi for the following molecule: Cn1cc(CN2CCOCC2)c2ccc(C(=O)N3CCN(C4CC4)CC3)cc21 [Example 2]
Result string: 7.34

Query string: Return pKi for the following molecule: O=C(c1ccc2[nH]cc(CN3CCN(C4CCC4)CC3)c2c1)N1CCCCC1 [Example 38]
Result string: 6.37

Query string: Return pKi for the following molecule: CN(C)C1CCN(Cc2c[nH]c3cc(C(=O)N4CCC(c5ccccc5)CC4)ccc23)C1 (stereo not shown) [Example 87]
Result string: 7.70

Query string: Return pKi for the following molecule: O=C(c1ccc2c(CN3CCOCC3)c[nH]c2c1)N1CCc2nc[nH]c2C1 [Example 13]
Result string: 5.70

Query string: Return pKi for the following molecule: CC(C)N1CCN(C(=O)c2ccc3c(CN4CCC(O)(c5ccccc5)CC4)c[nH]c3c2)CC1 [Example 65]
Result string: 9.00
